The measurements presented in this section are drawn from ChEMBL document CHEMBL1147738.

tested-on: Mitogen-activated protein kinase 14 (Homo sapiens)
test-summary: Inhibition of SAPK2a/p38 at 10 uM
endpoint-name: inhibition (%)
Give a bare numeral; the unit % is implied.

Would you please look over these solved cases?
[[record]]
structure_string = "CCONC(=O)c1cn(C)c(=O)c(C)c1Nc1ccc(Br)cc1F"
tested_on = "Mitogen-activated protein kinase 14 (Homo sapiens)"
endpoint_name = "inhibition"
observed_value = -3

[[record]]
structure_string = "CCONC(=O)c1cn(C)c(=O)c(F)c1Nc1ccc(Br)cc1F"
tested_on = "Mitogen-activated protein kinase 14 (Homo sapiens)"
endpoint_name = "inhibition"
observed_value = 10

[[record]]
structure_string = "CONC(=O)c1cn(C)c(=O)c(C)c1Nc1ccc(Br)cc1F"
tested_on = "Mitogen-activated protein kinase 14 (Homo sapiens)"
endpoint_name = "inhibition"
observed_value = 3


// moving on: another record for inhibition
Q: What value of inhibition has been recorded for this entry: Cc1c(Nc2ccc(Br)cc2F)c(C(=O)NOCCO)cn(C)c1=O
Ans: 20

---

tested-on: Cyclin-dependent kinase 2/cyclin A (Homo sapiens) (UniProt P24941+P20248+P78396)
test-summary: Inhibition of CDK2/cyclin A at 10 uM
Assay type: protein-complex assay
Below is a list of entries, each paired with its recorded inhibition value.
State the value with its unit after it.

Would you please look over these solved cases?
[[record]]
structure_string = "Cc1c(Nc2ccc(Br)cc2F)c(C(=O)NOCCO)cn(C)c1=O"
endpoint_name = "inhibition"
observed_value = "9%"

[[record]]
structure_string = "CONC(=O)c1cn(C)c(=O)c(C)c1Nc1ccc(Br)cc1F"
endpoint_name = "inhibition"
observed_value = "8%"

[[record]]
structure_string = "CCONC(=O)c1cn(C)c(=O)c(C)c1Nc1ccc(Br)cc1F"
endpoint_name = "inhibition"
observed_value = "20%"


// moving on: another record for inhibition
Q: What value of inhibition has been recorded for this entry: CCONC(=O)c1cn(C)c(=O)c(F)c1Nc1ccc(Br)cc1F
Ans: 25%

---

test-summary: Clearance in rat
Format: ADME, organism-based
run-parameters: Sprague-Dawley, in vivo
Below is a list of entries, each paired with its recorded log10 of clearance value.
Lab note - clearance converted to log10 from values in mL/min/kg.

Would you please look over these solved cases?
[[record]]
structure_string = "CONC(=O)c1cn(C)c(=O)c(C)c1Nc1ccc(Br)cc1F"
endpoint_name = "log10 of clearance"
observed_value = 0.18

[[record]]
structure_string = "Cn1cc(C(N)=O)c(Nc2ccc(Br)cc2F)c(F)c1=O"
endpoint_name = "log10 of clearance"
observed_value = 0.76

[[record]]
structure_string = "Cc1c(Nc2ccc(Br)cc2F)c(C(=O)NOCCO)cn(C)c1=O"
endpoint_name = "log10 of clearance"
observed_value = 0.90

[[record]]
structure_string = "CCONC(=O)c1cn(C)c(=O)c(F)c1Nc1ccc(Br)cc1F"
endpoint_name = "log10 of clearance"
observed_value = -0.15


// moving on: another record for log10 of clearance
Q: What value of log10 of clearance has been recorded for this entry: CCONC(=O)c1cn(C)c(=O)c(C)c1Nc1ccc(Br)cc1F
Ans: 0.28

---

System: Malme-3M
test-summary: Inhibition of cellular viability of Malme-3M cells
Format: functional, Homo sapiens
endpoint-name: log10(Activity) (log10 of the value in nM)
Lab note - Activity converted to log10 from values in nM.

[[record]]
structure_string = "Cn1cc(C(=O)NO)c(Nc2ccc(Br)cc2F)c(F)c1=O"
tested_on = "Malme-3M"
observed_value = 2.93


Q: What value of log10(Activity) has been recorded for this entry: CONC(=O)c1cn(C)c(=O)c(C)c1Nc1ccc(Br)cc1F
Ans: 2.42
